# protein stability index per entry
- EXPERIMENT_SUMMARY: protein stability index of a GFP-peptide fusion (GPS, HEK-293T) (PSI 1-6); higher = more stable;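 note: 24-mer peptide tiles fused after GFP, lentivirally expressed, FACS-sorted into six equal bins by GFP/DsRed ratio, decoded by Illumina sequencing, PSI is the read-weighted mean bin number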
- CONDITION_SET: treatment: DMSO; c terminus: a fixed tail appended
Answer with the value's number alone.

Sample answers from the record:
TNNPRFDKMEGNPICVQIPWDKNP [CRY1] ... 3.47
KRKLDTILNLERDVEDLQRDKARL [NFE2L1] ... 4.36
ILGGSGPVRKLYDDCSSTIVEDPQ [ESRRG] ... 4.37
ILTIMATLKIRNSNFYTVAVTSLS [TMEM106C] ... 3.3
LEGWRPDQLYRRKKDNHALVRETD [ELOA2] ... 4.45

IN: Look at this sequence and give its reported protein stability index. PMTPEDPSFWDCFCFTEEIPIRNG [AASDHPPT]
OUT: 3.56

IN: Look at this sequence and give its reported protein stability index. GFVMVPFEYRGEQHKTCMLNATSK [EDNRA]
OUT: 2.24

IN: Look at this sequence and give its reported protein stability index. QYKKEPVTTRQVRTIVEEVQDGKV [KRT17]
OUT: 5

IN: Look at this sequence and give its reported protein stability index. RVGQWVRMENVTVLGEDVIVNDEL [GMPPB]
OUT: 4.01

IN: Look at this sequence and give its reported protein stability index. TFLTVTDLIGLPWVCFIYTIMSLA [SLC2A12]
OUT: 3.38

---

- EXPERIMENT_SUMMARY: protein stability index of a GFP-peptide fusion (GPS, HEK-293T) (PSI 1-6); higher = more stable
- CONDITION_SET: treatment: MLN4924 1 uM, 8 h; c terminus: a fixed tail appended
Tag: Criterion met if measured protein stability index is not below 4, Criterion not met if it is.

Reference set (10 entries):
SEDLDGHSDPEESFARDLPDFPSI [RETREG3] ... Criterion met
LRYSVVEESEPGTLVGNVAQDLGL [PCDHGC5] ... Criterion not met
DDKHYGGFTNKQLQSGQEYVFFVL [PTPRD] ... Criterion not met
DKRNYPSLELDKMAHGYGEESEEE [CHGB] ... Criterion met
LGCNRQSWCLKRYDLEYWAFHDGQ [TRIM14] ... Criterion not met
SKSNLGWTPLHLACYFGHRQVVQD [OSBPL1A] ... Criterion not met
LVQRQMSVIEEDLEEFQLALKHYV [NECAB1] ... Criterion not met
ELHRRLDEEQQVLLSRLEEEEQDI [TRIM39] ... Criterion met
SWEPLSGPSTPSPVAAQFTSEGTT [FCHO1] ... Criterion met
CLSRHSINPYSNRESRILFSTWNL [DFFB] ... Criterion not met

Field: next sequence
IN: Determine whether this sequence has protein stability index no lower than 4: EEPTERGNLEVGEPQSEPVRVLDM [FBXO34]
OUT: Criterion met

---

- EXPERIMENT_SUMMARY: protein stability index of a GFP-peptide fusion (GPS, HEK-293T) (PSI 1-6); higher = more stable
- CONDITION_SET: treatment: DMSO; c terminus: a fixed tail appended
MEASUREMENT_LABEL: protein stability index
Answer with the value's number alone.

Sample answers from the record:
ARAEQEEEFISNTLFKKIQALQKE [CCDC6] ... 3.48
QQLDLRWNNVGLLGGRALMNCLPS [LRRC45] ... 2.65
SLKQALKGLSVEFALLADKAAQQG [SNX8] ... 2.32
QCPYCQRRFNENAADRHINFCKEQ [ZC2HC1A] ... 4.91
EEQRVEQQTKLEAEKLKVQALKDR [LSM1] ... 5.55

IN: Look at this sequence and give its reported protein stability index. LGTELAERQGNGQQAMSLAILRVI [KCNA3]
OUT: 2.42

IN: Look at this sequence and give its reported protein stability index. LAAKALLDQKKQDPRVQDFLQRCL [NET1]
OUT: 2.28

IN: Look at this sequence and give its reported protein stability index. SGKELKIDIIPNPQERTLTLVDTG [HSP90AB1]
OUT: 3.98

---

- EXPERIMENT_SUMMARY: protein stability index of a GFP-peptide fusion (GPS, HEK-293T) (PSI 1-6); higher = more stable
- CONDITION_SET: treatment: MLN4924 1 uM, 8 h; c terminus: a fixed tail appended
Tag: T if measured protein stability index is not below 3, F if it is.

Reference set (3 entries):
LLLLFGVAGGLVACRVTELQQQPL [LRRC59] ... T
DFKNPIIEKYLRRQLTKPRPVILD [OAS1] ... F
HGHNIGKKMSCQQFIANLDQLNDG [PSD2] ... T

Field: next sequence
IN: Determine whether this sequence has protein stability index no lower than 3: KIFNDFKDRMKSDHKRETERVVRE [ZMYND11]
OUT: T

---

- EXPERIMENT_SUMMARY: protein stability index of a GFP-peptide fusion (GPS, HEK-293T) (PSI 1-6); higher = more stable
- CONDITION_SET: treatment: MLN4924 1 uM, 8 h; c terminus: a fixed tail appended
MEASUREMENT_LABEL: protein stability index
Answer with the value's number alone.

Sample answers from the record:
REENEKLRLENSSLFSQALKDEEA [CCDC89] ... 5.41
EFMKDRLYFATLRNRPKSTVNTHY [CDC14A] ... 2.17

IN: Look at this sequence and give its reported protein stability index. QGRNSLWLSDWVTSYKVMVSNDSH [CPXM2]
OUT: 2.47

IN: Look at this sequence and give its reported protein stability index. LEQMGALAVRGSRRERELERRELA [ZBED3]
OUT: 4.76

IN: Look at this sequence and give its reported protein stability index. ELQEKQKNEKLISLQEQLQRFLKK [TAF7L]
OUT: 3.39

IN: Look at this sequence and give its reported protein stability index. QCPYCQRRFNENAADRHINFCKEQ [ZC2HC1A]
OUT: 5.09

IN: Look at this sequence and give its reported protein stability index. PVNALVSHLLVVEPEKLYAMPDPA [ESRRA]
OUT: 2.92

IN: Look at this sequence and give its reported protein stability index. KMPVYSGSRPACQLQVPTLRQQCA [ELOA2]
OUT: 3.14

IN: Look at this sequence and give its reported protein stability index. GGRAYQALHCPTGTEYTCKVYPVQ [TRIB3]
OUT: 2.76

IN: Look at this sequence and give its reported protein stability index. YQTEQSLRQLVESDINSLRRILDE [KRT33B]
OUT: 3.61

IN: Look at this sequence and give its reported protein stability index. SGETWNPLKLHYQLRNVRERLAKN [GOLPH3]
OUT: 3.03

IN: Look at this sequence and give its reported protein stability index. QDFLLFSPEVESLPVASSSTLLPL [NFE2L1]
OUT: 3.37

IN: Look at this sequence and give its reported protein stability index. NKATNTDHLTTVLYLQLAICSSLQ [C8orf76]
OUT: 3.21

---

- EXPERIMENT_SUMMARY: protein stability index of a GFP-peptide fusion (GPS, HEK-293T) (PSI 1-6); higher = more stable
- CONDITION_SET: treatment: MLN4924 1 uM, 8 h; c terminus: a fixed tail appended
MEASUREMENT_LABEL: protein stability index
Answer with the value's number alone.

Sample answers from the record:
KGLEDTKSPQFNRYFYLLENIAWV [PDS5B] ... 2.31
PMENLEKQLICPICLEMFTKPVVI [TRIM63] ... 2.38
PSIIPQEDPSQQFLQQSLERVYSL [INTS4] ... 3.58
YGVASCEACKAFFKRTIQGSIEYS [ESRRA] ... 2.52
MQVFAKLGTDPTHVMGLYPDLLPT [VPS39] ... 2.35

IN: Look at this sequence and give its reported protein stability index. RRGLLVSLNELMIVIGILSAYISN [SLC2A12]
OUT: 2.67

IN: Look at this sequence and give its reported protein stability index. AKYEYMEEQVILTEKDLLEDGFGE [SAT1]
OUT: 4.06

IN: Look at this sequence and give its reported protein stability index. HTFAGDDCQAGLNFADEDEAQAFR [WAS]
OUT: 4.92

IN: Look at this sequence and give its reported protein stability index. LSPEVLNKQGHGCESDIWALGCVM [PLK2]
OUT: 2.14

IN: Look at this sequence and give its reported protein stability index. FFSKRFKSAAMLAVFAVSAVVHEY [SOAT1]
OUT: 3.06

IN: Look at this sequence and give its reported protein stability index. FNLFCQKRFDESMQVFAKLGTDPT [VPS39]
OUT: 2.68

IN: Look at this sequence and give its reported protein stability index. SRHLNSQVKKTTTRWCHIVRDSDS [PHTF1]
OUT: 3.15

IN: Look at this sequence and give its reported protein stability index. GYNDYTINVWDVLKGSRVSILFGH [GNB5]
OUT: 2.3

IN: Look at this sequence and give its reported protein stability index. TTSWGLLSLGALVALCWQLGLLFE [SCNN1D]
OUT: 2.13

IN: Look at this sequence and give its reported protein stability index. VVHDWLYSYVYQDGLRLLGARARG [SOAT2]
OUT: 2.28

IN: Look at this sequence and give its reported protein stability index. TIQKQLKDHSCKDNIREAFQIYDK [EFHC1]
OUT: 3.13

IN: Look at this sequence and give its reported protein stability index. RWCCCCGERETRTPEELTILGETQ [CLCN6]
OUT: 3.79

IN: Look at this sequence and give its reported protein stability index. ISSTTCGRQLEKVPEKRDSGMTEV [SPATS1]
OUT: 4.38
